# Measured Target: Muscarinic acetylcholine receptor M3 (Homo sapiens, UniProt P20309)
# Sequence (P20309 whole entry): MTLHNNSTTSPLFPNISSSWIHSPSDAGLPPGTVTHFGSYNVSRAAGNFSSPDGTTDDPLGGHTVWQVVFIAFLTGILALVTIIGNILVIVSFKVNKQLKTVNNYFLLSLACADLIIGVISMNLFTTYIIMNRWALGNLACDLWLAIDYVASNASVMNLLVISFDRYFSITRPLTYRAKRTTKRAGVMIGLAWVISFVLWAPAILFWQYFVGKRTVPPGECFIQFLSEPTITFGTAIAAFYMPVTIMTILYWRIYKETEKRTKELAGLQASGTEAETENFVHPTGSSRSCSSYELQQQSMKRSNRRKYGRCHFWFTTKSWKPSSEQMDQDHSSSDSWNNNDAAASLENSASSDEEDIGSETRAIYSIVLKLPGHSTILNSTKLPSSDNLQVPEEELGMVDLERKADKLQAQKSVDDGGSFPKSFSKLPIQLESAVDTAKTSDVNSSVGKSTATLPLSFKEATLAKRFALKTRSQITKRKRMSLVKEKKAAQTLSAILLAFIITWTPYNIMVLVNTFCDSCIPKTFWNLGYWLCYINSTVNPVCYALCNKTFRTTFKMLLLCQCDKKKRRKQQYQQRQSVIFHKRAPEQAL
# Run Description: Antagonist activity at mAChR M3 in human CCRF-CEM cells assessed as inhibition of acetylcholine-mediated calcium flux incubated for 25 mins followed by acetylcholine stimulation measured for 90 secs
Below: a set of entries, each annotated with reported IC50.

Below are worked cases with known answers.
• N[C@H]1CC[C@H](CN(C[C@H]2Cc3ccccc3CN2)[C@H]2CCCc3cccnc32)CC1 = > 33 µM
• NCC1CC1CN(C[C@H]1Cc2ccccc2CN1)[C@H]1CCCc2cccnc21 (single isomer, unassigned; diastereomer 1) = > 33 µM
• C/C(CN(C[C@H]1Cc2ccccc2CN1)[C@H]1CCCc2cccnc21)=C(/F)CN = > 17 µM
• NC/C=C/CN(C[C@H]1Cc2ccccc2CN1)[C@H]1CCCc2cccnc21 = > 16 µM
• N[C@H]1CC[C@@H](N(C[C@H]2Cc3ccccc3CN2)[C@H]2CCCc3cccnc32)CC1 = > 33 µM
• NC/C=C\CN(C[C@H]1Cc2ccccc2CN1)[C@H]1CCCc2cccnc21 = 0.61 µM

Query: Dear colleague, I am looking for the recorded IC50 of the following compound: NCC1CC1CN(C[C@H]1Cc2ccccc2CN1)[C@H]1CCCc2cccnc21 (single isomer, unassigned; diastereomer 2)
Response: 13 µM

Query: Looking for the measured IC50 of "N[C@H]1CC[C@H](N(C[C@H]2Cc3ccccc3CN2)[C@H]2CCCc3cccnc32)CC1" , can you help?
Response: > 33 µM

Query: Return reported IC50; argument: "NCC1=C(CN(C[C@H]2Cc3ccccc3CN2)[C@H]2CCCc3cccnc32)CCCC1"
Response: 23 µM

Query: // query IC50 value for entry "NC[C@H]1CC[C@H](CN(C[C@H]2Cc3ccccc3CN2)[C@H]2CCCc3cccnc32)CC1"
Response: 10 µM

Query: Data request, read-out IC50, for "NC(=O)NC/C=C\CN(C[C@H]1Cc2ccccc2CN1)[C@H]1CCCc2cccnc21"
Response: > 16 µM
